Hi there, I'd appreciate the recorded growth at 10 µM for every entry that follows.
- Tested on: IGROV-1
- assay_text: Growth inhibition of human IGROV1 cells assessed as cell growth at 10 uM after 48 hrs by sulforhodamine B assay
- Format: functional
- reported_conditions: IGROV-1, 48 h, read-out: Activity
Numbers only, in %.

# structure_smiles_string, property_name, recorded_result
records = [
    ("O=C(Nc1cccc(-n2cc(-c3ccncc3)c(-c3ccc(Cl)c(O)c3)n2)c1)Nc1ccc(Cl)c(C(F)(F)F)c1", "growth at 10 µM", 10.4),
]

Batch request: growth at 10 µM for each of the following molecules.
1. COc1cc(-c2nn(-c3cccc(NC(=O)c4ccc(Br)c(C)c4)c3)cc2-c2ccncc2)ccc1Cl
2. O=C(Nc1cccc(-n2cc(-c3ccncc3)c(-c3ccc(Cl)c(O)c3)n2)c1)Nc1cccc(C(F)(F)F)c1

1. 76.2
2. 28.6

Batch request: growth at 10 µM for each of the following molecules.
1. O=C(Nc1cccc(-n2cc(-c3ccncc3)c(-c3ccc(Cl)c(O)c3)n2)c1)c1ccc(N2CCOCC2)c(C(F)(F)F)c1
2. COc1cc(-c2nn(-c3cccc(NC(=O)c4ccc(N5CCOCC5)c(C(F)(F)F)c4)c3)cc2-c2ccncc2)ccc1Cl

1. 96.8
2. 41.8

###

Hi there, I'd appreciate the recorded growth at 3 µM for every entry that follows.
- System: HCT-15
- assay_text: Growth inhibition of human HCT15 cells assessed as cell growth at 3X10'-6 M after 48 hrs by sulforhodamine B assay
- Type: functional
- reported_conditions: HCT-15, 48 h, read-out: Activity
Answers are plain numbers, in %.

Example entries begin here.
# structure_smiles_string, tgt, growth at 3 µM, %
data = [
    ("O=C(Nc1cccc(-n2cc(-c3ccncc3)c(-c3ccc(Cl)c(O)c3)n2)c1)Nc1cccc(C(F)(F)F)c1", "HCT-15", 27),
    ("O=C(Nc1cccc(-n2cc(-c3ccncc3)c(-c3ccc(Cl)c(O)c3)n2)c1)Nc1ccc(Cl)c(C(F)(F)F)c1", "HCT-15", 4),
    ("COc1cc(-c2nn(-c3cccc(NC(=O)c4ccc(Cl)c(C(F)(F)F)c4)c3)cc2-c2ccncc2)ccc1Cl", "HCT-15", 50),
]

In plain terms, COc1cc(-c2nn(-c3cccc(NC(=O)Nc4ccc(Cl)c(C(F)(F)F)c4)c3)cc2-c2ccncc2)ccc1Cl has a documented growth at 3 µM of 18

###

Hi there, I'd appreciate the recorded growth at 0.5 µM for every entry that follows.
- Tested on: SF-268
- assay_text: Growth inhibition of human SF268 cells assessed as cell growth at 5X10'-7 M after 48 hrs by sulforhodamine B assay
- Format: functional
- reported_conditions: SF-268, 48 h, read-out: Activity
Give bare numbers, in %.

# structure_smiles_string, growth at 0.5 µM, %
records = [
    ("O=C(Nc1cccc(-n2cc(-c3ccncc3)c(-c3ccc(Cl)c(O)c3)n2)c1)c1ccc(N2CCOCC2)c(C(F)(F)F)c1", 104),
    ("COc1cc(-c2nn(-c3cccc(NC(=O)Nc4cc(C(F)(F)F)cc(C(F)(F)F)c4)c3)cc2-c2ccncc2)ccc1Cl", 87),
    ("COc1cc(-c2nn(-c3cccc(NC(=O)Nc4ccc(Cl)c(Cl)c4)c3)cc2-c2ccncc2)ccc1Cl", 89),
]

Now for another entry.
In plain terms, COc1cc(-c2nn(-c3cccc(NC(=O)c4cccc(C(F)(F)F)c4)c3)cc2-c2ccncc2)ccc1Cl has a documented growth at 0.5 µM of 88

###

- Tested on: HOP-92
- assay_text: Growth inhibition of human HOP92 cells after 48 hrs by sulforhodamine B assay
- Type: functional, cell-based
- reported_conditions: HOP-92, 48 h
property_name: LC50 (µM)
Give bare numbers, in µM.

Batch request: LC50 for each of the following compounds.
1. O=C(Nc1cccc(-n2cc(-c3ccncc3)c(-c3ccc(Cl)c(O)c3)n2)c1)Nc1ccc(Cl)c(C(F)(F)F)c1
2. COc1cc(-c2nn(-c3cccc(NC(=O)Nc4cc(C(F)(F)F)cc(C(F)(F)F)c4)c3)cc2-c2ccncc2)ccc1Cl
3. O=C(Nc1cccc(-n2cc(-c3ccncc3)c(-c3ccc(Cl)c(O)c3)n2)c1)Nc1cc(C(F)(F)F)cc(C(F)(F)F)c1

13.5
4.72
8.66

###

- Tested on: NCI-H522
- assay_text: Growth inhibition of human NCI-H522 cells after 48 hrs by sulforhodamine B assay
- Format: functional
- reported_conditions: NCI-H522, 48 h
Hi, to clarify the labels: yes covers TGI from 3 µM upward, no covers anything below 3 µM.

# example entries with known answers
# structure_smiles_string, group_label
data = [
    ("COc1cc(-c2nn(-c3cccc(NC(=O)c4ccc(Cl)c(C(F)(F)F)c4)c3)cc2-c2ccncc2)ccc1Cl", "yes"),
    ("COc1cc(-c2nn(-c3cccc(NC(=O)c4ccccc4)c3)cc2-c2ccncc2)ccc1Cl", "yes"),
    ("O=C(Nc1cccc(-n2cc(-c3ccncc3)c(-c3ccc(Cl)c(O)c3)n2)c1)Nc1ccc(Cl)c(C(F)(F)F)c1", "no"),
]

Would you say COc1cc(-c2nn(-c3cccc(NC(=O)c4cccc(C(F)(F)F)c4)c3)cc2-c2ccncc2)ccc1Cl shows TGI at minimum 3 µM?
yes

Would you say COc1cc(-c2nn(-c3cccc(NC(=O)Nc4cccc(C(F)(F)F)c4)c3)cc2-c2ccncc2)ccc1Cl shows TGI at minimum 3 µM?
no

Would you say O=C(Nc1cccc(-n2cc(-c3ccncc3)c(-c3ccc(Cl)c(O)c3)n2)c1)Nc1cc(C(F)(F)F)cc(C(F)(F)F)c1 shows TGI at minimum 3 µM?
no

Would you say COc1cc(-c2nn(-c3cccc(NC(=O)c4ccc(N5CCOCC5)c(C(F)(F)F)c4)c3)cc2-c2ccncc2)ccc1Cl shows TGI at minimum 3 µM?
yes

###

- Test system: SF-268
- assay_text: Growth inhibition of human SF268 cells after 48 hrs by sulforhodamine B assay
- Format: functional
- reported_conditions: SF-268, 48 h
Hi there, I'd appreciate the recorded GI50 for every entry that follows.
Numbers only, in nM.

Example entries begin here.
# structure_smiles_string, tgt, GI50, nM
measured = [
    ("O=C(Nc1cccc(-n2cc(-c3ccncc3)c(-c3ccc(Cl)c(O)c3)n2)c1)Nc1ccc(Cl)c(Cl)c1", "SF-268", 1490),
    ("COc1cc(-c2nn(-c3cccc(NC(=O)Nc4ccc(Cl)c(C(F)(F)F)c4)c3)cc2-c2ccncc2)ccc1Cl", "SF-268", 1460),
    ("O=C(Nc1cccc(-n2cc(-c3ccncc3)c(-c3ccc(Cl)c(O)c3)n2)c1)c1ccc(N2CCOCC2)c(C(F)(F)F)c1", "SF-268", 5580),
    ("COc1cc(-c2nn(-c3cccc(NC(=O)Nc4cccc(C(F)(F)F)c4)c3)cc2-c2ccncc2)ccc1Cl", "SF-268", 1360),
    ("O=C(Nc1cccc(-n2cc(-c3ccncc3)c(-c3ccc(Cl)c(O)c3)n2)c1)Nc1cc(C(F)(F)F)cc(C(F)(F)F)c1", "SF-268", 846),
]

Now for another entry.
In plain terms, COc1cc(-c2nn(-c3cccc(NC(=O)c4ccc(Cl)c(C(F)(F)F)c4)c3)cc2-c2ccncc2)ccc1Cl has a documented GI50 of 4860

###

- Test system: HT-29
- assay_text: Growth inhibition of human HT-29 cells assessed as cell growth at 5X10'-8 M after 48 hrs by sulforhodamine B assay
- Assay type: functional
- reported_conditions: HT-29, 48 h, read-out: Activity
Hi there, I'd appreciate the recorded growth at 0.05 µM for every entry that follows.
Numbers only, in %.

# structure_smiles_string, measurement_unit, growth at 0.05 µM
data = [
    ("COc1cc(-c2nn(-c3cccc(NC(=O)Nc4ccc(Cl)c(Cl)c4)c3)cc2-c2ccncc2)ccc1Cl", "%", 102),
    ("O=C(Nc1cccc(-n2cc(-c3ccncc3)c(-c3ccc(Cl)c(O)c3)n2)c1)Nc1cc(C(F)(F)F)cc(C(F)(F)F)c1", "%", 107),
    ("COc1cc(-c2nn(-c3cccc(NC(=O)c4cccc(C(F)(F)F)c4)c3)cc2-c2ccncc2)ccc1Cl", "%", 96),
]

Now for another entry.
In plain terms, COc1cc(-c2nn(-c3cccc(NC(=O)Nc4cccc(C(F)(F)F)c4)c3)cc2-c2ccncc2)ccc1Cl has a documented growth at 0.05 µM of 99

###

- Test system: SN12C
- assay_text: Growth inhibition of human SN12C cells assessed as cell growth at 10 uM after 48 hrs by sulforhodamine B assay
- Assay type: functional
- reported_conditions: read-out: Activity
Hi there, I'd appreciate the recorded growth at 10 µM for every entry that follows.
Answers are plain numbers, in %.

Example entries begin here.
# structure_smiles_string, growth at 10 µM [%]
rows = [
    ("COc1cc(-c2nn(-c3cccc(NC(=O)c4ccc(Br)c(C)c4)c3)cc2-c2ccncc2)ccc1Cl", 81),
    ("Cc1cc(C(=O)Nc2cccc(-n3cc(-c4ccncc4)c(-c4ccc(Cl)c(O)c4)n3)c2)ccc1Br", 101),
    ("O=C(Nc1cccc(-n2cc(-c3ccncc3)c(-c3ccc(Cl)c(O)c3)n2)c1)Nc1ccc(Cl)c(Cl)c1", 18),
    ("COc1cc(-c2nn(-c3cccc(NC(=O)c4ccc(Cl)c(C(F)(F)F)c4)c3)cc2-c2ccncc2)ccc1Cl", 57.3),
]

Now for another entry.
In plain terms, O=C(Nc1cccc(-n2cc(-c3ccncc3)c(-c3ccc(Cl)c(O)c3)n2)c1)c1ccccc1 has a documented growth at 10 µM of 79.3

Hey, just so you know, these numbers are from ChEMBL document CHEMBL2440076.
